tested on: SEM cells; assay: cell viability relative to DMSO control; higher = less cytotoxic; conditions: RPMI 5 mM glucose + 10% FBS; 48 h; 0.000781 µM
parameter: cell viability (%)
Give bare numbers, in %.

Example entries and their recorded answers appear below.
INSERT INTO measurements (compound, quantitative_result) VALUES
  ('c1ccc(-c2nn3c(c2-c2ccnc4cc(OCCN5CCOCC5)ccc24)CCC3)nc1', 102),
  ('Cn1cc(-c2ccc3ncc(Cc4ccc5ncccc5c4)n3n2)cn1', 113),
  ('CC1(C)CC(=O)c2c(C(F)(F)F)nn(-c3ccc(C(N)=O)c(NC4CCC(OC(=O)CN)CC4)c3)c2C1 (centres undefined)', 108);

Kindly review the next compound as well.
Data request: Record lookup: for SEM cells, what cell viability belongs to O=C(NC1CC1)c1cccc(-c2ccc3c(NC(=O)C4CC4)n[nH]c3c2)c1 ?
Data returned: 97.1
